Test: Metabolic stability in hepatocyte
Conditions: Sprague Dawley, rat, hepatocytes in suspension
Readout type: half-life at 0.5 μM (h)
Report as a plain number; the unit h is understood.

Task item: Which half-life at 0.5 μM reading was recorded for the compound CCc1cc(Cl)c(OC)c(N2CCN(CC(O)CCNC(=O)c3cc4ccccc4[nH]3)CC2)c1 (stereo not shown) ?
Reply: 1.44

====

Assay: Metabolic stability in liver microsomes
Settings: human, microsomes, pH 7.4
Readout type: remaining at 1.5 h, 10 μM (%)
Report as a plain number; the unit % is understood.

Task item: Which remaining at 1.5 h, 10 μM reading was recorded for the molecule Cc1ncc2n1-c1ccc(Cl)cc1C(c1ccccc1F)=NC2 [Midazolam, reference compound] ?
Reply: 0.2
